Give measured inhibition for each item. Keep answers brief.
Biological target: A disintegrin and metalloproteinase with thrombospondin motifs 4 (Homo sapiens)
Test: Inhibition of human recombinant ADAMTS4 at 1 uM by fluorimetric assay
Write the answer as a number in %, unit excluded.

Input line: Data request, read-out inhibition, for COc1cc(Cc2nnc([C@H](CCC(=O)O)NC(=O)c3ccc(-c4ccccc4)cc3)o2)cc(OC)c1OC
Output line: 47

Input line: Proceed to CC(C)(c1ccccc1)c1nnc([C@H](CCC(=O)O)NC(=O)c2ccc(-c3ccccc3)cc2)o1
Output line: -5

Input line: Proceed to O=C(O)CC[C@H](NC(=O)c1ccc(-c2ccccc2)cc1)c1nnc(CCc2ccccc2)o1
Output line: 30

Input line: Proceed to COc1ccc(CCc2nnc([C@H](CCC(=O)O)NC(=O)c3ccc(-c4ccccc4)cc3)o2)cc1
Output line: 35

Input line: Proceed to O=C(O)CC[C@H](NC(=O)c1ccc(-c2cccnc2)cc1)c1nnc(CCc2ccccc2)o1
Output line: 12

Input line: Proceed to COc1cc(CCc2nnc([C@H](CCC(=O)O)NC(=O)c3ccc(-c4ccccc4)cc3)o2)cc(OC)c1OC
Output line: 35

Input line: Proceed to COc1ccc(Cc2nnc([C@H](CCC(=O)O)NC(=O)c3ccc(-c4ccccc4)cc3)o2)cc1
Output line: 5

Input line: Proceed to O=C(O)CC[C@H](NC(=O)c1ccc(-c2ccccc2)cc1)c1nnc(C2(c3ccccc3)CC2)o1
Output line: 5

Input line: Proceed to O=C(O)CC[C@H](NC(=O)c1ccc(-c2ccccc2)cc1)c1nnc(Cc2ccccc2)o1
Output line: 17

Input line: Proceed to CC(C)(Cc1nnc([C@H](CCC(=O)O)NC(=O)c2ccc(-c3ccccc3)cc2)o1)c1ccccc1
Output line: 19

Input line: Proceed to O=C(O)CC[C@H](NC(=O)c1ccc(-c2ccncc2)cc1)c1nnc(CCc2ccccc2)o1
Output line: 8

Input line: Proceed to CC(C)(Cc1ccccc1)c1nnc([C@H](CCC(=O)O)NC(=O)c2ccc(-c3ccccc3)cc2)o1
Output line: 23

Input line: Proceed to O=C(O)CC[C@H](NC(=O)c1ccc(-c2ccccc2)cc1)c1nnc(CCc2ccc(O)cc2)o1
Output line: 22

Input line: Proceed to Cc1ccc(CCc2nnc([C@H](CCC(=O)O)NC(=O)c3ccc(-c4ccccc4)cc3)o2)cc1
Output line: 27
